Value source: paper PMC10999543

# Tested on: HeLa cells
# test description: Compound screen by flow cytometry: HeLa cell count as surrogate readout of cell viability (z-scoreHeLa); note: test concentration or dose not given here
# Format: cell-based, human
# assay conditions: PKIS compounds raw data; replicate 2; HeLa cell count
cell count rep 2 listing for selected compounds.
Could you respond with only the numeric value?

Some solved entries appear below for comparison.
Cn1cc(-c2ccc3c(c2)CCN3C(=O)Cc2cccc(F)c2)c2c(N)ncnc21 [GSK2603358A] | 6919
[O-][S+]1CCN(Cc2ccc(-c3ccc4ncnc(Nc5ccc(OCc6ccccc6)c(Cl)c5)c4c3)o2)CC1 [GW583373A] | 7971
CN(C)c1cc2c(Nc3ccc4nc(Cc5ccccc5)[nH]c4c3)ncnc2cn1 [GW301888X] | 7361
Cn1cncc1-c1cc2c(Nc3ccc(OCc4ccccc4)cc3)ncnc2cn1 [GW281179X] | 2008
CC(C)c1ccc2c(c1)NC(=O)C2=NNc1ccc(S(N)(=O)=O)cc1 [GW300653X] | 3535
Cc1cccc(-c2nc(Nc3ccc4[nH]ncc4c3)c3ccccc3n2)n1 [GW857175X] | 1268
COc1cc(N2CCN(C(C)C)CC2)ccc1Nc1nc(Nc2ccc(F)cc2C(N)=O)c2cc[nH]c2n1 [GSK1220512A] | 3908

Shift focus to the following entry.
Lookup: cell count rep 2 for COc1ccc2[nH]c3c4[nH]c5ccc(OC)cc5c4c4c(c3c2c1)C(=O)NC4=O [GW296115X] ?
Found: 4236

###

# Test system: HeLa cells
# test description: Compound screen by flow cytometry: HeLa cell count as surrogate readout of cell viability (z-scoreHeLa); note: test concentration or dose not given here
# Format: cell-based, human
# assay conditions: PKIS compounds raw data; replicate 2; HeLa cell count
The following compounds are shown together with reported cell count rep 2 values.
// return a plain number; no unit text

Use these answered entries as a reference point.
Cc1cc(NCC(c2ccccc2)c2ccccc2)nc(NCc2ccc(C(F)(F)F)cc2)n1 [GW497681X] | 1381
COC(=O)c1ccc2c(c1)C(=Cc1cc(Br)c(O)c(Br)c1)C(=O)N2 [GW405841X] | 7140
Fc1cccc(COc2ccc(Nc3ncnc4sc(-c5ccc[nH]5)cc34)cc2Cl)c1 [GW707818B] | 6344
Cc1nnc(-c2ccc(C)c(-c3ccc(C(=O)Nc4ccc(NS(C)(=O)=O)cc4)cc3)c2)o1 [GW702865X] | 4158

Lookup: Quick check: cell count rep 2 of O=S(=O)(c1cccc(F)c1)c1ccc(Nc2ncnc3cc(Br)sc23)cc1Cl [GSK306886A] ?
Found: 1761

Lookup: # query: cell count rep 2 of entry CCn1c(-c2nonc2N)nc2c(C#CC(C)(C)O)nc(OCCNC)cc21 [GSK949675A]
Found: 5879

Lookup: I'd like to know its cell count rep 2. The compound in question is CS(=O)(=O)CCNCc1ccc(-c2ccc3ncnc(Nc4ccc(OCc5ccccc5)c(Br)c4)c3c2)o1 [GW580496A]
Found: 6483

Lookup: Given the entry O=S(=O)(CCOCc1ccc(-c2ccc3ncnc(Nc4ccc(OCc5cccc(F)c5)c(Cl)c4)c3c2)o1)c1ccccc1 [GW615311X] , report its measured cell count rep 2.
Found: 4665

###

# Test system: HeLa cells
# test description: Compound screen by flow cytometry: HeLa cell count as surrogate readout of cell viability (z-scoreHeLa); note: test concentration or dose not given here
# Format: cell-based, human
# assay conditions: PKIS compound screen, HeLa cell count, mean of 3 replicates
Overview of reported z-scoreHeLa mean across a group of molecules:
No unit in the answer, please; the number alone is enough.

Before answering, review these 3 worked examples.
CCOc1ccc2c(-c3ccnc(Nc4cccc(C(F)(F)F)c4)n3)cnn2n1 [GW811761X] | 1.28
Cc1cc(-c2ccc3c(c2)CC[C@@H](N[C@@H](C)c2ccccc2)C3)cnc1N [GW412617A] | 1.94
c1ccc(-c2cc3ccncc3cc2OC2CCNCC2)cc1 [GSK1122999D] | -0.31

# evaluate next
Lookup: Requested field: z-scoreHeLa mean. Item: CN(c1ccc2c(c1)nc(NCc1ccc(F)cc1)n2C)c1ccnc(Nc2ccc(CS(C)(=O)=O)cc2)n1 [GW813244A]
Found: -0.26

###

Catalogue of compounds with associated cell count rep 3
# Test system: HeLa cells
# test description: Compound screen by flow cytometry: HeLa cell count as surrogate readout of cell viability (z-scoreHeLa); note: test concentration or dose not given here
# Type: cell-based, human
# assay conditions: PKIS compounds raw data; replicate 3; HeLa cell count
// print number alone

COc1ccc(Nc2nccc(N3CCC(NC(=O)Nc4cccc(C(C)=O)c4)C3)n2)cc1 (centres unmarked) [GSK1379731A] | 6635
Clc1ccc(CNc2nccc(-c3cnn4ncccc34)n2)cc1 [GW781673X] | 5990
CS(=O)(=O)CCNCc1nc(-c2ccc3ncnc(Nc4ccc(OCc5cccc(F)c5)c(Cl)c4)c3c2)cs1 [GW583340C] | 7162
NS(=O)(=O)c1ccc(N/N=C2\C(=O)Nc3ccc(Cl)cc32)cc1 [GW280670X] | 7741
CNC(=O)c1cc(-c2ccc(F)cc2)cc(-c2ccc(S(=O)(=O)N3CCCC3)cc2)c1N [GSK635416A] | 6877

Lookup: Quick check: cell count rep 3 of CN(c1ccc2c(c1)nc(NCc1ccccc1)n2C)c1ccnc(Nc2ccc(CS(C)(=O)=O)cc2)n1 [GW811603A] ?
Found: 4329

Lookup: Reported cell count rep 3 for Cc1ccc(S(=O)(=O)Nc2ccc(Nc3nccc(Nc4cccc5[nH]ncc45)n3)cc2)cc1 [GSK581271A] : what is it?
Found: 6401

Lookup: For COC(=O)c1ccc2c(c1)C(=Cc1cc(Br)c(O)c(Br)c1)C(=O)N2 [GW405841X] , what is its reported cell count rep 3?
Found: 10804

###

# Tested on: HeLa cells
# test description: Compound screen by flow cytometry: HeLa cell count as surrogate readout of cell viability (z-scoreHeLa); note: test concentration or dose not given here
# Type: cell-based, human
# assay conditions: PKIS compound screen raw data, HeLa cell count, replicate 1
measured attribute: cell count rep 1
Format: numeric value only, no unit, no commentary.

A selection of reference data follows.
Cc1cccc2c1NC(=O)C2=NNc1ccc(S(N)(=O)=O)cc1 [GW282536X] | 1823
Cc1cccc(-c2nc(Nc3ccc4c(cnn4C)c3)c3ccccc3n2)n1 [GW876731X] | 29057
Cc1ccc(O)cc1Nc1ccnc2cc(-c3ccc(CN4CCCCC4)o3)ccc12 [GW557777X] | 30186
COc1ccc(Nc2nccc(N3CCC(NC(=O)C(C)c4ccc(Cl)cc4)CC3)n2)cc1 (stereo not shown) [GSK1379812A] | 31442
COc1cc(Nc2nccc(N3CCC(NC(=O)C(C)c4ccc(Cl)cc4)C3)n2)cc(OC)c1OC (stereo not shown) [GSK1379757A] | 34106
CCCNC(=O)Nc1ccc(N(C)c2ccnc(NC3CC3)n2)cc1 [GW818933X] | 29169
O=C(Nc1n[nH]c2nc(-c3ccccc3)c(Br)cc12)C1CC1 | 29154
Fc1cc(Cl)ccc1Nc1ccnc2cc(-c3ccc(CN4CCOCC4)o3)ccc12 [GW560109X] | 37673

Lookup: Record lookup: for HeLa cells, what cell count rep 1 belongs to Nc1ncc(-c2cccnc2)c2scc(-c3ccc4c(c3)CCN4C(=O)Cc3ccccc3)c12 [GSK683281A] ?
Found: 22126

Lookup: Entry Cc1ccc(C)c(NC(=O)NCCNc2ccnc(Nc3ccc(F)cc3)n2)c1 [GSK1379878A] , system HeLa cells: what cell count rep 1 was measured?
Found: 23015

Lookup: Kindly state the measured cell count rep 1 obtained for NS(=O)(=O)c1cccc(-c2cc3ccncc3cc2OCc2ccccc2)c1 [GSK980961A] with HeLa cells.
Found: 14876

Lookup: For HeLa cells, provide cell count rep 1 of OCCCNc1nccc(-c2c(-c3ccc(F)cc3)nn3cc(C(F)(F)F)ccc23)n1 [GW569293E] please.
Found: 13158

Lookup: Checklist item: cell count rep 1 tested on HeLa cells, entry CC(C)(C)c1ccc2nccc(Nc3cccc(O)c3)c2c1 [GW856795X] , value?
Found: 35017

Lookup: Test system HeLa cells; read-out cell count rep 1; what value for Cc1ccccc1CC(=O)N1CCc2cc(-c3cn(C)c4ncnc(N)c34)ccc21 [GSK2603346A] ?
Found: 19984

Lookup: Recall the recorded cell count rep 1 for Fc1ccc(-c2ncn(C3CCNCC3)c2-c2ccnc(Oc3ccc(F)c(F)c3)n2)cc1 with HeLa cells and state it.
Found: 9973

Lookup: Find cell count rep 1 (HeLa cells) for the entry COC(=O)Nc1nc2ccc(Oc3ccc(NC(=O)Nc4cc(C(F)(F)F)ccc4F)cc3)cc2n1C [GW692089A]
Found: 28483

###

# Test system: HeLa cells
# test description: Compound screen by flow cytometry: HeLa cell count as surrogate readout of cell viability (z-scoreHeLa); note: test concentration or dose not given here
# Type: cell-based, human
# assay conditions: PKIS compounds raw data; replicate 2; HeLa cell count
measured attribute: cell count rep 2
Response field accepts a number only; no unit should be typed.

Please review the entries below; each comes with its answer.
Cc1cc(Cl)cc2c1NC(=O)C2=NNc1ccc(S(N)(=O)=O)cc1 [GW279320X] | 6163
Nc1nc(-c2ccc3c(c2)C(=Cc2cc(Br)c(O)c(Br)c2)C(=O)N3)cs1 [GW407323A] | 5858
c1ccc(-c2ccc3c(Nc4ccc5[nH]ccc5c4)ccnc3c2)nc1 [GW440138A] | 7813

Lookup: // query cell count rep 2 value for entry O=C(NC1CCN(c2ccnc(Nc3ccc(F)cc3)n2)C1)c1cc2ccccc2s1 (stereo not drawn) [GSK1379716A]
Found: 4507

Lookup: Entry CS(=O)(=O)CCN(CC#N)Cc1ccc(-c2ccc3ncnc(Nc4ccc(OCc5cccc(F)c5)c(Cl)c4)c3c2)o1 [GW616030X] has what cell count rep 2?
Found: 3932

Lookup: # get_value(readout='cell count rep 2', item= Cc1ccc(NC(=O)Nc2ccccc2)cc1-c1ccc(C(=O)Nc2ccncc2)cc1 [GSK1398471A] )
Found: 2675

Lookup: So what does the record say about cell count rep 2 for Cc1ccc(C(=O)Nc2ccc(Nc3ccnc4cc(-c5nccs5)ccc34)cc2O)cc1 [GW494702A] ?
Found: 7707

Lookup: What cell count rep 2 value was documented for this compound, Nc1nonc1-c1nc2cnccc2n1C1CCCCC1 ?
Found: 2902

Lookup: Given the entry Cc1nc(-c2ccccc2)n2nc(NCCCN3CCOCC3)ncc12 [GW874091X] , report its measured cell count rep 2.
Found: 3785
